- System: Staphylococcus haemolyticus
- PROTOCOL TEXT: In vitro minimum inhibitory concentration against methicillin-susceptible Coagulase-negative Staphylococci (MSCNS) (GC 6257)
- Format: functional
METRIC: MIC (µg/mL)
Note: unit µg/mL is implicit; provide only the numeric part.

IN: For the compound `C[C@@H](c1ccccc1)[C@@H]1NC(=O)CNC(=O)[C@H](CO)NC(=O)[C@@H]([C@@H](O)[C@@H]2CN=C(N)N2[C@H]2O[C@H](CO)[C@@H](O)[C@H](O)[C@@H]2O)NC(=O)[C@H]([C@H](O)[C@@H]2CN=C(N)N2)NC(=O)[C@@H](Cc2ccc3nc(-c4cccc(F)c4)oc3c2)NC1=O` , what MIC is on record?
OUT: 4

IN: For the compound `C[C@@H](c1ccccc1)[C@@H]1NC(=O)CNC(=O)[C@H](CO)NC(=O)[C@@H]([C@@H](O)[C@@H]2CN=C(N)N2[C@H]2O[C@H](CO)[C@@H](O)[C@H](O)[C@@H]2O)NC(=O)[C@H]([C@H](O)[C@@H]2CN=C(N)N2)NC(=O)[C@@H](Cc2ccc3nc(-c4ccc(N(C)C)cc4)oc3c2)NC1=O` , what MIC is on record?
OUT: 4

IN: For the compound `CCN1CCN(C(=O)N[C@@H](C(=O)N[C@@H]2C(=O)N3[C@@H]2SC(C)(C)[C@@H]3C(=O)O)c2ccccc2)C(=O)C1=O` , what MIC is on record?
OUT: 4
